Source listed as patent US11279735B2.

- System: Escherichia coli (E. coli) strain CFT073 ATCC 700928
- Format: cell-based
- CONDITIONS: ATCC 700928, 22 h
- Description: In vitro antimicrobial activity of each compound was determined by measuring minimal inhibitor concentrations (MICs) using the broth micro-dilution technique as approved by the Clinical and Laboratory Standards Institute (CLSI) (Methods for Dilution Antimicrobial Susceptibility Tests for Bacteria that Grow Aerobically; Approved Standard—Eighth Edition. CLSI document M07-A8. Wayne, Pa.: Clinical and Laboratroy Standards; 2009). […]
*1 amine or outer side, *2 acyl side, *3 side chain or, on linkers, in order; H or OH if unused. Where a SMILES comes first, the peptide text is derived from it. [ ]: non-standard residue; d: D form. X1 = CCCCCC[C@@H](C(=O)[*:2])[C@@H](C)OC[C@@H](C)N[*:1]; X2 = CCCCCC[C@@H](OC[C@@H](C)N[*:1])[C@@H](C)C(=O)[*:2]; aThr = C[C@H](O)[C@H](N)C(=O)O; NMeL = CN[C@@H](CC(C)C)C(=O)O; Chg = N[C@H](C(=O)O)C1CCCCC1; NMeNva = CCC[C@H](NC)C(=O)O; Dap = NC[C@H](N)C(=O)O
Would you kindly list MIC for each of these molecules?

Determine from records and report MIC for CC[C@@H](C)[C@@H]1NC(=O)[C@H](CC(C)C)N(C)C(=O)[C@H](C)[C@@H](CCCCCC(F)(F)F)OC(=O)CNC(=O)[C@H]([C@H](C)O)NC(=O)[C@H](CN)NC1=O
25 µM

Determine from records and report MIC for CCCCCC[C@H]1C(=O)N(C)[C@@H](CCC)C(=O)N[C@@H](C2CCCCC2)C(=O)N[C@@H](CN)C(=O)N[C@@H]([C@H](C)O)C(=O)N[C@H](C)CO[C@@H]1C [Example 150] (cyclo([Chg][Dap][aThr][X1][NMeNva]))
25 µM

Determine from records and report MIC for CCCCCC[C@H]1OC(=O)CNC(=O)[C@H](CCO)NC(=O)[C@H](CN)NC(=O)[C@H]([C@H](C)CC)NC(=O)[C@H](CC(C)C)N(C)C(=O)[C@@H]1C
50 µM

Determine from records and report MIC for CCCCCC[C@H]1OC(=O)CNC(=O)[C@H]([C@H](C)O)NC(=O)[C@H]([C@H](C)O)NC(=O)[C@H]([C@H](C)CC)NC(=O)[C@H](CC(C)C)N(C)C(=O)[C@@H]1C
35 µM

Determine from records and report MIC for CCCCCC[C@H]1OC(=O)CNC(=O)[C@H]([C@H](C)O)NC(=O)[C@H](CN)NC(=O)[C@H](C2CCCCC2)NC(=O)[C@H](CC(C)C)N(C)C(=O)[C@@H]1CC(F)(F)F
3.1 µM

Determine from records and report MIC for CCCCCC[C@H]1OC[C@@H](C)NC(=O)[C@H]([C@H](C)O)NC(=O)[C@H](CN)NC(=O)[C@H](C2CCCCC2)NC(=O)[C@H](CC(C)C)N(C)C(=O)[C@@H]1C [Example 57] (cyclo([Chg][Dap][aThr][X2][NMeL]))
2.9 µM

Determine from records and report MIC for CCCCCC[C@H]1OC(=O)CNC(=O)[C@H](CNC(N)=O)NC(=O)[C@H](CN)NC(=O)[C@H](C2CCCCC2)NC(=O)[C@H](CC(C)C)N(C)C(=O)[C@@H]1C
50 µM

Determine from records and report MIC for CCCCCCCCCC[C@H]1OC(=O)CNC(=O)[C@H]([C@H](C)O)NC(=O)[C@H](CN)NC(=O)[C@H](CCc2ccccc2)NC(=O)[C@H](CC(C)C)N(C)C(=O)[C@@H]1C
25 µM

Determine from records and report MIC for CC[C@@H](C)[C@@H]1NC(=O)[C@H](CC(C)C)N(C)C(=O)[C@H](C)[C@@H](CCCCC(C)(C)C)OC(=O)CNC(=O)[C@H]([C@H](C)O)NC(=O)[C@H](CN)NC1=O
3.1 µM
